- Test system: Staphylococcus aureus
- EXPERIMENTAL_CONTEXT: Concentration 32 ug.mL-1; ASSAY_TEST Inhibition of Bacterial Growth; detection method Absorption (OD600); MEDIA CAMHB; plate type 384well; NBS; CORNING #3640; time 18 hr
- Description: Antibacterial activity against Staphylococcus aureus MRSA ATCC 43300 (CO-ADD:GP_020); MIC in CAMBH media, using NBS plates, by OD(600)
Measured potencies and affinities stand elsewhere.
A collection of compounds and their measured Inhibition
MEASUREMENT_NAME: Inhibition (%)

1. CC(NC(=O)c1ncc([N+](=O)[O-])n1C)c1ccc(F)cc1 (configuration not stated): 34.68
2. Cn1c([N+](=O)[O-])cnc1C(=O)NCc1ccc(OC(F)(F)F)cc1: 35.57
3. Cn1c([N+](=O)[O-])cnc1C(=O)NCc1cccc(OC(F)(F)F)c1: 39.06
4. CN(C)C(=O)c1ncc([N+](=O)[O-])n1C: 42.28
5. Cn1c([N+](=O)[O-])cnc1C(=O)N1CCOCC1: 46.51
6. Cc1ccc(CCNC(=O)c2ncc([N+](=O)[O-])n2C)cc1: 48.13
7. Cn1c([N+](=O)[O-])cnc1C(=O)NCc1ccccn1.O=C(O)C(F)(F)F: 45.26

====

- System: Escherichia coli
- EXPERIMENTAL_CONTEXT: Concentration 32 ug.mL-1; ASSAY_TEST Inhibition of Bacterial Growth; detection method Absorption (OD600); MEDIA CAMHB; plate type 384well; NBS; CORNING #3640; time 18 hr
- Description: Antibacterial activity against Escherichia coli ATCC 25922 (CO-ADD:GN_001); MIC in CAMBH media using NBS plates, by OD(600)
Results with a measured potency or affinity are listed apart.
MEASUREMENT_NAME: Inhibition (%)

1) CC(NC(=O)c1ncc([N+](=O)[O-])n1C)c1ccc(F)cc1 (stereo not given): 2.11
2) Cn1c([N+](=O)[O-])cnc1C(=O)NCc1cccc(OC(F)(F)F)c1: 5.07
3) CN(C)C(=O)c1ncc([N+](=O)[O-])n1C: 6.99
4) Cn1c([N+](=O)[O-])cnc1C(=O)N1CCOCC1: 8.52
5) Cn1c([N+](=O)[O-])cnc1C(=O)NCc1ccccn1.O=C(O)C(F)(F)F: -0.31
